Data provenance is ChEMBL document CHEMBL3232847.

# MEASUREMENT_PROTOCOL: AUC in cynomolgus monkey at 30 mg/kg/day, po qd
# Assay type: ADME, organism-based, Macaca fascicularis
# Parameters: route oral
# CONDITION_SUMMARY: plasma

| SMI | AUC [µM·h] |
| --- | --- |
| CC1(C)Oc2nc(C(F)(F)F)nc(N)c2N=C1c1ccc2c(c1)CC[C@]21CC[C@@H](CC(=O)O)CC1 | 2560 |

====

# ASSAYED_SYSTEM: Diacylglycerol O-acyltransferase 2 (Homo sapiens)
# Sequence (Q96PD7 whole entry): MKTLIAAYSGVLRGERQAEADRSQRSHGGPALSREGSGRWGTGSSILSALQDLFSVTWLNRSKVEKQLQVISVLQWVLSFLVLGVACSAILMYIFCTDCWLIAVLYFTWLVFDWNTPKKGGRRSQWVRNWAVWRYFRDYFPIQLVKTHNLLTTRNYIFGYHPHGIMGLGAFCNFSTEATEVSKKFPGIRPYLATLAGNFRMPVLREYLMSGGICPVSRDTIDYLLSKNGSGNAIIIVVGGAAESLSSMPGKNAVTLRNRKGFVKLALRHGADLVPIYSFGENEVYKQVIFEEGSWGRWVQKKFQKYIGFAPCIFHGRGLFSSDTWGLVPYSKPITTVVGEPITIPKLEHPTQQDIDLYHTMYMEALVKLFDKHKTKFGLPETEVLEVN
# MEASUREMENT_PROTOCOL: Inhibition of human liver flag-tagged DGAT2 expressed in baculovirus infected insect cells after 2 hrs by SPA
pIC50: −log10 of the molar value.

| SMI | pIC50 |
| --- | --- |
| CC1(C)Oc2nc(C(F)(F)F)nc(N)c2N=C1c1ccc2c(c1)CC[C@]21CC[C@@H](CC(=O)O)CC1 | < 5.00 |

====

# MEASUREMENT_PROTOCOL: Clearance in beagle dog at 0.2 mg/kg, iv
# Type: ADME, organism-based, Canis lupus familiaris
# Parameters: dose 0.2 mg/kg, route intravenous
# CONDITION_SUMMARY: in vivo

| SMI | clearance [mL/min/kg] |
| --- | --- |
| CC1(C)Oc2nc(C(F)(F)F)nc(N)c2N=C1c1ccc2c(c1)CC[C@]21CC[C@@H](CC(=O)O)CC1 | 2.33 |

====

# MEASUREMENT_PROTOCOL: Volume of distribution at steady state in beagle dog at 0.5 mg/kg, iv
# Assay type: ADME, organism-based, Canis lupus familiaris
# Parameters: dose 0.5 mg/kg, route intravenous
# CONDITION_SUMMARY: in vivo, read-out: Vdss

| SMI | Vd (L/kg) |
| --- | --- |
| CC1(C)Oc2ncnc(N)c2N=C1c1ccc([C@H]2CC[C@H](CC(=O)O)CC2)cc1 | 1.9 |

====

# MEASUREMENT_PROTOCOL: Clearance in Sprague-Dawley rat at 1 mg/kg, iv
# Type: ADME, organism-based
# Parameters: dose 1 mg/kg, route intravenous
# CONDITION_SUMMARY: in vivo
Parameter clearance: see the listing below.

| SMI | clearance [mL/min/kg] |
| --- | --- |
| CC1(C)Oc2ncnc(N)c2N=C1c1ccc([C@H]2CC[C@H](CC(=O)O)CC2)cc1 | 9.17 |
| Cc1nc(N)c2c(n1)OC(C)(C)C(c1ccc([C@H]3CC[C@H](CC(=O)O)CC3)cc1)=N2 | 3.5 |
| CC1(C)Oc2ncnc(N)c2C=C1c1ccc2c(c1)CC[C@]21CC[C@@H](CC(=O)O)CC1 | 21.7 |
| CC1(C)Oc2nc(C(F)(F)F)nc(N)c2N=C1c1ccc([C@H]2CC[C@H](CC(=O)O)CC2)cc1 | 1.33 |
| CC1(C)Oc2ncnc(N)c2C=C1c1ccc([C@H]2CC[C@H](CC(=O)O)CC2)cc1 | 23.3 |

====

# MEASUREMENT_PROTOCOL: Oral bioavailability in Sprague-Dawley rat at 5 mg/kg
# Format: ADME, organism-based
# CONDITION_SUMMARY: in vivo
OBSERVATION_TYPE: bioavailability

| SMI | OBSERVATION_TYPE | RESULT |
| --- | --- | --- |
| CC1(C)Oc2nc(C(F)(F)F)nc(N)c2N=C1c1ccc2c(c1)CC[C@]21CC[C@@H](CC(=O)O)CC1 | bioavailability | 98% |
